// values below are reported activity at 10 µM
- Test system: AR-V7 transcriptional activity
- test: MMTV-LUC luciferase reporter assay in 22RV1 cells, DHT− (screening and IC50)
- Format: cell-based
- test_parameters: Homo sapiens; 22RV1 cells, 10 uM, no DHT; control = 100
Lab book: enter the figure in %, no units written.

Some molecules with known activity at 10 µM results, for comparison:
COC(=O)[C@@]12OC[C@]34[C@H]([C@@H](O)[C@@H]1O)[C@@]1(C)CC(=O)C(O)=C(C)[C@@H]1C[C@H]3OC(=O)[C@H](OC(=O)C=C(C)C)[C@@H]24 [Brusatol, brusatol]	10.3
CCCCN(CCCC)CC(O)c1cc(Cl)cc2c1-c1ccc(Cl)cc1/C2=C/c1ccc(Cl)cc1 (stereo not shown) [Lumefantrine]	138
COc1c(O)cc2c(c1O)C(=O)c1c(cc(C)c(O)c1OC)C2=O [Aurantio-obtusin]	119

I would be grateful if you could share the reported activity at 10 µM for O=C(Nc1ccc([N+](=O)[O-])cc1Cl)c1cc(Cl)ccc1O [Niclosamide] .
9.4
